Test system: Plasmodium berghei
Test method notes: Antimalarial activity against Plasmodium berghei infected in mouse assessed as change in mean survival time at 40 mg/kg (reference value: 6.2 +/- 0.5 days)
Type: functional
Test parameters: 40 mg/kg
Rule: measured MST below 10 days gets YES; anything equal to or greater than 10 days gets NO.

Study these solved cases before continuing.
Molecule | Class name
CCCCCCCN(CCCCCCC)CC(O)c1cc2ccccc2c2cc(Br)ccc12 (racemic) | YES
CCCCN(CCCC)CCC(O)c1cc2c(Cl)cc(Cl)cc2c2cc(C(F)(F)F)ccc12 (stereo in doubt; (+)-8) [HALOFANTRINE] | NO
CCCCN(CCCC)CCC(O)c1cc2c(Cl)cc(Cl)cc2c2cc(C(F)(F)F)ccc12 (stereo in doubt; (-)-8) [HALOFANTRINE] | NO
CCCCN(CCCC)CC(O)c1cc(-c2ccc(Cl)c(Cl)c2)nc2c(Cl)cc(Cl)cc12 (racemic) | NO
CCCCCCCN(CCCCCCC)CC(O)c1cc2ccccc2c2cc(Br)ccc12 (stereo in doubt; (-)-3) | YES
CCCCCCCN(CCCCCCC)CC(O)c1cc2ccccc2c2cc(Br)ccc12 (single isomer, unassigned; (+)) | YES
CCCCN(CCCC)CC(O)c1cc(-c2ccc(C(F)(F)F)cc2)nc(-c2ccc(C(F)(F)F)cc2)c1 (single isomer, unassigned; (-)) | NO
CCCCN(CCCC)CC(O)c1cc(-c2ccc(Cl)c(Cl)c2)nc2c(Cl)cc(Cl)cc12 (single isomer, unassigned; (+)) | NO

Inquiry: Consider CCCCN(CCCC)CC(O)c1cc(-c2ccc(C(F)(F)F)cc2)nc(-c2ccc(C(F)(F)F)cc2)c1 (stereo in doubt; (+)-2) . Does its MST lie strictly below 10 days?
Reply text: NO

Inquiry: Consider CCCCN(CCCC)CC(O)c1cc(-c2ccc(Cl)c(Cl)c2)nc2c(Cl)cc(Cl)cc12 (single isomer, unassigned; (-)) . Does its MST lie strictly below 10 days?
Reply text: YES

These entries and their values trace back to ChEMBL document CHEMBL3244007.
